- MEASURED_TARGET: T1, Human TNFa N-his trimers (His-tagged TNF, produced at ESBATech) (human, UniProt P01375 77-233)
- T1 construct: Captured as trimers on a Ni-NTA sensor chip by the N-terminal His tags in the Biacore assay of the general methods; also called human TNFα; human TNF alpha; not shown: N-terminal His tag
- T1 sequence (P01375 77-233 limits assumed): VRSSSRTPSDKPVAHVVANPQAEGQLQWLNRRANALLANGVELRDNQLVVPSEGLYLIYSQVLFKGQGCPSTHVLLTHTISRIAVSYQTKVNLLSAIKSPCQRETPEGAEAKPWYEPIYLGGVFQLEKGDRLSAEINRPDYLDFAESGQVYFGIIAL
- TEST_SUMMARY: SPR (BIAcore T100), His-tagged human TNF captured on NTA chip, scFv as analyte

BINDER	UNIT_ANNOTATION	kon
EP19_max (scFv, also called 1007; EP19maxmod) scFv: EIVMTQSPSTLSASVGDRVIITCQASDNIYRGLAWYQQKPGKAPKLLIYDASTLQSGVPSRFSGSGSGTQFTLTISSLQPDDFATYYCLGVYGYSSDDGAAFGQGTKLTVLGGGGGSGGGGSGGGGSGGGGSEVQLVESGGGLVQPGGSLRLSCTVSGFSLNSNEISWVRQAPGKGLEWVGYIGNGGMTHYASWAKGRFTISRDTSKNTVYLQMNSLRAEDTAVYYCASSVEYTDLYYLNIWGQGTLVTVSS	M⁻¹ s⁻¹	22500
EP35_max (scFv, scFv NH2-VL-(GGGGS)4-VH-COOH; also called 1089) scFv: EIVMTQSPSTLSASVGDRVIITCQASQSISNLLAWYQQKPGKAPKLLIVAASKLASGVPSRFSGSGSGTEFTLTISSLQPDDFATYYCQQGWSHTNVDNTFGQGTKLTVLGGGGGSGGGGSGGGGSGGGGSEVQLVESGGGSVQPGGSLRLSCTASGFSFSVGYWICWVRQAPGKGLEWVACIDAGTSGGTYYATWAKGRFTISKDTSKNTVYLQMNSLRAEDTATYYCARGVSSNGYYFKLWGQGTTVTVSS	M⁻¹ s⁻¹	772000
